# credit: patent US12486280B2

Parameter: hERG. Scope: all listed entries.
tested-on: hERG potassium channels (Homo sapiens (Human), UniProt Q12809)
Sequence (Q12809 whole entry): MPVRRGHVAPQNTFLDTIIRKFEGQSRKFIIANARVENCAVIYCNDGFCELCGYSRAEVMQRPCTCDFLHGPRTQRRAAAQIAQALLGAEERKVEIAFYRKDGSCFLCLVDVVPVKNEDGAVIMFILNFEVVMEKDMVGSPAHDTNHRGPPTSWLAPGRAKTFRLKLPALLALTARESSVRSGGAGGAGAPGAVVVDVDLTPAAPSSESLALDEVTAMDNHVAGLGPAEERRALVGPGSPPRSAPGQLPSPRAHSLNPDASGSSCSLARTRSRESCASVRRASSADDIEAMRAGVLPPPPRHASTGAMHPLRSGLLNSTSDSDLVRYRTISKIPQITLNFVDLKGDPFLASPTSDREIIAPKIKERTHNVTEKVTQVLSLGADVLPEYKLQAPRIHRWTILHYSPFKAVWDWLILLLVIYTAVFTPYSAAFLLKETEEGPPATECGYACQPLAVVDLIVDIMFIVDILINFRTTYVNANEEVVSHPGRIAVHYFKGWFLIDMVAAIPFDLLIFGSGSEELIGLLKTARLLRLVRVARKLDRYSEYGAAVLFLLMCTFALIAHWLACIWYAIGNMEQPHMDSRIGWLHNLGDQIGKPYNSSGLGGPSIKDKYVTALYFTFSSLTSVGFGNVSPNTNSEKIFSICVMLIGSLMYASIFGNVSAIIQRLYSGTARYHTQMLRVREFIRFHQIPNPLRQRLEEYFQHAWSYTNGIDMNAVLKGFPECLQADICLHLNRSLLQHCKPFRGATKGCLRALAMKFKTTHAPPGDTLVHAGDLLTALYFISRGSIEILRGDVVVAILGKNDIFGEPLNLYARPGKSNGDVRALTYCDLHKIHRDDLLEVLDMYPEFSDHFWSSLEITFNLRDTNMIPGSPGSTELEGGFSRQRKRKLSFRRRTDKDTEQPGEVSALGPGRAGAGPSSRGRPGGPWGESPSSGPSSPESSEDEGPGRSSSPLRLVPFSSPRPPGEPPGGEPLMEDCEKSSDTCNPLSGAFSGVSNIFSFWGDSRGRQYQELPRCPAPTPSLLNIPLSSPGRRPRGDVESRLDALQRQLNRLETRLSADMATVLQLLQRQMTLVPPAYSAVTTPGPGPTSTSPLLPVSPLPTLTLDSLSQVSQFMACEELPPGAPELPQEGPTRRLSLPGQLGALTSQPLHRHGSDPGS
test-details: hERG Inhibition Assay (QPatch automated patch clamp, CHO cells)
settings: percent of control current
metric: hERG (%)

structure-string | experimental-result
Cc1nc2c(F)cc(-c3nc(Nc4ccc(CN5CCO[C@@](C)(CCO)C5)cn4)ncc3F)cc2n1C(C)C | 18.96
Cc1nc2c(F)cc(-c3nc(Nc4ccc(CN5CCO[C@](C)(CCN(C)C)C5)cn4)ncc3F)cc2n1C(C)C | 26.05
Cc1nc2c(F)cc(-c3nc(Nc4ccc(CN5CCO[C@]6(CCN(S(C)(=O)=O)C6)C5)cn4)ncc3F)cc2n1C(C)C | 14.35
Cc1nc2c(F)cc(-c3nc(Nc4ccc(CN5CCO[C@](C)(CCN6CCC6)C5)cn4)ncc3F)cc2n1C(C)C | 20.47
CNC(=O)C[C@]1(C)CN(Cc2ccc(Nc3ncc(F)c(-c4cc(F)c5nc(C)n(C(C)C)c5c4)n3)nc2)CCO1 | 25.3
CNCC[C@]1(C)CN(Cc2ccc(Nc3ncc(F)c(-c4cc(F)c5nc(C)n(C(C)C)c5c4)n3)nc2)CCO1 | 14.76

---

Parameter: half-life at 1 μM. Scope: all listed entries.
test-details: Measurement of Compound Metabolic Stability in hepatocytes
metric: half-life at 1 μM (min)

molecule | metric | unit-symbol | experimental-result
COC(=O)N1CC[C@]2(CN(Cc3ccc(Nc4ncc(F)c(-c5cc(F)c6nc(C)n(C(C)C)c6c5)n4)nc3)CCO2)C1 | half-life at 1 μM | min | 4.99
Cc1nc2c(F)cc(-c3nc(Nc4ccc(CN5CCO[C@](C)(CC(=O)N6CCCC6)C5)cn4)ncc3F)cc2n1C(C)C | half-life at 1 μM | min | 3.32
CC(=O)N1CC[C@]2(CN(Cc3ccc(Nc4ncc(F)c(-c5cc(F)c6nc(C)n(C(C)C)c6c5)n4)nc3)CCO2)C1 | half-life at 1 μM | min | 27
Cc1nc2c(F)cc(-c3nc(Nc4ccc(CN5CCO[C@@](C)(CCO)C5)cn4)ncc3F)cc2n1C(C)C | half-life at 1 μM | min | 17.5
Cc1nc2c(F)cc(-c3nc(Nc4ccc(CN5CC6(C5)CS(=O)(=O)C6)cn4)ncc3F)cc2n1C(C)C | half-life at 1 μM | min | 33.9
CCC[C@@]1(C)CN(Cc2ccc(Nc3ncc(F)c(-c4cc(F)c5nc(C)n(C(C)C)c5c4)n3)nc2)CCN1 | half-life at 1 μM | min | 126
CC[C@@]1(CCN(C)C)CN(Cc2ccc(Nc3ncc(F)c(-c4cc(F)c5nc(C)n(C(C)C)c5c4)n3)nc2)CCO1 | half-life at 1 μM | min | 101
Cc1nc2c(F)cc(-c3nc(Nc4ccc(CN5CCO[C@@]6(CCN(S(C)(=O)=O)C6)C5)cn4)ncc3F)cc2n1C(C)C | half-life at 1 μM | min | 5.65
CNC(=O)C[C@]1(C)CN(Cc2ccc(Nc3ncc(F)c(-c4cc(F)c5nc(C)n(C(C)C)c5c4)n3)nc2)CCO1 | half-life at 1 μM | min | 3.51
Cc1nc2c(F)cc(-c3nc(Nc4ccc(CN5CCO[C@@](C)(CCN(C)C)C5)cn4)ncc3F)cc2n1C(C)C | half-life at 1 μM | min | 152
Cc1nc2c(F)cc(-c3nc(Nc4ccc(CN5CCO[C@]6(CCN(C)C6)C5)cn4)ncc3F)cc2n1C(C)C | half-life at 1 μM | min | 38.2
CNCC[C@@]1(C)CN(Cc2ccc(Nc3ncc(F)c(-c4cc(F)c5nc(C)n(C(C)C)c5c4)n3)nc2)CCO1 | half-life at 1 μM | min | 202
Cc1nc2c(F)cc(-c3nc(Nc4ccc(CN5CCO[C@@](C)(C[C@@H](C)N(C)C)C5)cn4)ncc3F)cc2n1C(C)C [Compound A28, methanesulfonate] | half-life at 1 μM | min | 55.2
